# measured on: T1, C-terminally FLAG-tagged human Gas6 recombinant protein (hGas6-F) (human, UniProt Q14393 31-678, gamma-carboxylated glutamic acid residues in the Gla domain (producer cells co-express rat VKOR and human GGCX); positions not given)
# T1 construct: also called human Gas6-F; human Gas6 protein
# T1 sequence: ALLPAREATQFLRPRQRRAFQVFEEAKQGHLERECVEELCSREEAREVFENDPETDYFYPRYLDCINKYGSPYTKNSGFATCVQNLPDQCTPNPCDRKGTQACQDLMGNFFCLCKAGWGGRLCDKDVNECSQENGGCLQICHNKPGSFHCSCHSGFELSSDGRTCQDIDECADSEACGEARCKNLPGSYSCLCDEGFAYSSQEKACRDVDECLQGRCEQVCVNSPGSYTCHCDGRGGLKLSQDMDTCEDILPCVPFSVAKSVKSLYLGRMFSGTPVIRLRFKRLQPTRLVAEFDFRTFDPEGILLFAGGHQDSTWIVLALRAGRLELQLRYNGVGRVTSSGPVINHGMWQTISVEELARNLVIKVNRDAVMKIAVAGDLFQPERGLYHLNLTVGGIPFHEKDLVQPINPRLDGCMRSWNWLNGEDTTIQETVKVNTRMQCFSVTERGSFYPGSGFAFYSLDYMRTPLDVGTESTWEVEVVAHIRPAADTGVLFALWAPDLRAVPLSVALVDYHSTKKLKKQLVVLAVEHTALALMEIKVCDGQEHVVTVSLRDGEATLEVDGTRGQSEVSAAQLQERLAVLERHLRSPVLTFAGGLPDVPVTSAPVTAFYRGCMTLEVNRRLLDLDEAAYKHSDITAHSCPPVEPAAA
# assay notes: SPR Biacore T100, captured antibody, Gas6 analyte, first test
koff for assorted binders
Report as a plain number; the unit s⁻¹ is understood.

{"binder": "KM5320 chimeric antibody (antibody, V domains shown, also called KM5320 chimera; A-01) VH: QIQLVQSGPELKKPGETVKISCKASGYTFTNYGMNWVKQAPGKGLKWMGWINTETGEPTYSDDFKGRFAFSLETSATTAYLQINNLRNEDMATYFCAREDGYYGTLDYWGQGTSVTVSS VL: SIVMTQTPKFLLVSAGDRVTITCKASQSVSNDVAWYQQKPGQSPKVLIYYASNRYTGVPDRFTGSGYGTDFTFTISTVQAEDLAVYFCQQDYSSPWTFGGGTKLEIK", "uom": "s⁻¹", "koff": 0.000156}

As a next step, examine the binder that follows.
**Q:** Can you look up the measured koff of hzKM5320 LV0HV0 antibody (antibody, V domains shown, Humanized; variant human IgG4 constant region (EU S228P, L235E, R409K), human kappa; also called A-02) VH: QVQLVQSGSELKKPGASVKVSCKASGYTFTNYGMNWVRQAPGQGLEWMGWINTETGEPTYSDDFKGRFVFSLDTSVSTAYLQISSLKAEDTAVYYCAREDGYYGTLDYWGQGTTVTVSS VL: DVVMTQSPDSLAVSLGERVTINCKASQSVSNDVAWYQQKPGQSPKLLIYYASNRYTGVPDRFSGSGSGTDFTLTISSLQAEDVAVYYCQQDYSSPWTFGQGTKLEIK for me?
**A:** 0.000924

These measurements were taken from patent US20180339041A1.
